The measured values listed here are drawn from patent US8664220B2.

# system-under-test: human LPA1 (Homo sapiens)
# Construct: the full-length cDNA for human LPA1 was obtained by PCR of the reverse transcription reaction
# Sequence (Q92633 whole entry): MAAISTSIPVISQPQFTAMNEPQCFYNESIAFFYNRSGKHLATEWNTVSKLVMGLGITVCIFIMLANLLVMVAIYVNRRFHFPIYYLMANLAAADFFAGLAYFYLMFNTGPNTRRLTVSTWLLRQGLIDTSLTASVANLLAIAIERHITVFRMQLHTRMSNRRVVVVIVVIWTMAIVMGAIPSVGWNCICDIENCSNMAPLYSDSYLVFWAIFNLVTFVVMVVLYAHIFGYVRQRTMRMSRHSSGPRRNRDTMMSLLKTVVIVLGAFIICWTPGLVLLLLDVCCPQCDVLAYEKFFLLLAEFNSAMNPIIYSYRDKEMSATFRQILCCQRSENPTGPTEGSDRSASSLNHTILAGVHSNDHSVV
# experimental-details: LPA1 calcium flux assay
# experimental-parameters: human LPA1 expressing CHO cells, stimulated with 10 nM LPA; read-out: HLPA1 Ca Flux IC50
pIC50: −log10 of the molar value.
// pIC50 lookup, one value per entry
property-measured: pIC50

[[record]]
compound = "Cc1noc(-c2ccc(-c3ccc(C4(C(=O)O)CC4)cc3)cc2)c1-c1nnc(Cc2ccccc2)o1"
property_measured = "pIC50"
assay_value = "4.30 to 6.00"

[[record]]
compound = "Cc1noc(-c2ccc(-c3ccc(C4(C(=O)O)CCC4)cc3)cc2)c1Nc1cccc(-c2ccccc2)n1"
property_measured = "pIC50"
assay_value = "> 6.52"

[[record]]
compound = "Cc1noc(-c2ccc(-c3ccc(C4(C(=O)O)CC4)cc3)cc2)c1Nc1cccc(Cc2ccccc2)n1"
property_measured = "pIC50"
assay_value = "> 6.52"

[[record]]
compound = "Cc1noc(-c2ccc(-c3ccc(C4(C(=O)NS(C)(=O)=O)CC4)cc3)cc2)c1C(O)c1cn(Cc2cccc(C(F)(F)F)c2)nn1 (stereo not shown)"
property_measured = "pIC50"
assay_value = "4.30 to 6.00"

[[record]]
compound = "Cc1noc(-c2ccc(-c3ccc(C4(C(=O)O)CC4)cc3)cc2)c1Nc1cccc(-c2cc(F)ccc2Cl)n1"
property_measured = "pIC50"
assay_value = "> 6.52"

[[record]]
compound = "Cc1noc(-c2ccc(-c3ccc(C4(C(=O)O)CC4)cc3)cc2)c1Cc1cn(Cc2ccccc2)nn1"
property_measured = "pIC50"
assay_value = "> 6.52"

[[record]]
compound = "COc1ccc(-c2cccc(Nc3c(C)noc3-c3ccc(-c4ccc(C5(C(=O)O)CC5)cc4)cc3)n2)cn1"
property_measured = "pIC50"
assay_value = "> 6.52"

[[record]]
compound = "Cc1noc(-c2ccc(-c3ccc(C4(CC(=O)O)CC4)cc3)cc2)c1NC1CCN(Cc2ccccc2)CC1"
property_measured = "pIC50"
assay_value = "4.30 to 6.00"

[[record]]
compound = "Cc1noc(-c2ccc(-c3ccc(C4(C(=O)O)CC4)cc3)cc2)c1NC(=O)c1cccc(-c2ccccc2CN(C)C)c1"
property_measured = "pIC50"
assay_value = "< 4.30"

[[record]]
compound = "Cc1noc(-c2ccc(-c3ccc(C4(C(=O)O)CC4)cc3)cc2)c1Nc1cccc(-c2cccc(F)c2)n1"
property_measured = "pIC50"
assay_value = "> 6.52"

[[record]]
compound = "Cc1noc(-c2ccc(-c3ccc(C4(C(=O)O)CC4)cc3)cc2)c1NCc1cnc(-c2ccccc2)s1"
property_measured = "pIC50"
assay_value = "> 6.52"

[[record]]
compound = "Cc1noc(-c2ccc(-c3ccc(C4(C(=O)O)CC4)cc3)cc2)c1C(O)c1cn(C(C)c2ccccc2)nn1 (stereo not shown)"
property_measured = "pIC50"
assay_value = "> 6.52"

[[record]]
compound = "Cc1noc(-c2ccc(-c3ccc(C4(C(=O)O)CC4)cc3)cc2)c1Cn1nc(-c2ccccc2)oc1=N"
property_measured = "pIC50"
assay_value = "> 6.52"

[[record]]
compound = "Cc1noc(-c2ccc(-c3ccc(C4(C(=O)O)CC4)cc3)cc2)c1Nc1cccc(-c2ccccc2)c1"
property_measured = "pIC50"
assay_value = "> 6.52"

[[record]]
compound = "Cc1noc(-c2ccc(-c3ccc(C4(C(=O)O)CC4)cc3)cc2)c1C(NS(C)(=O)=O)c1cn(Cc2ccccc2)nn1 (stereo not shown)"
property_measured = "pIC50"
assay_value = "< 4.30"

[[record]]
compound = "Cc1noc(-c2ccc(-c3ccc(C4(C(=O)O)CC4)cc3)cc2)c1C(O)c1cncc(-c2cccc(C(F)(F)F)c2)c1 (stereo not shown)"
property_measured = "pIC50"
assay_value = "> 6.52"

